We begin with a simple list: items and their reported residual activity.
# tgt: CDC42BPA (human)
# test details: radiometric filter-binding kinase assay, Kinase HotSpot
# experimental setup: compound 0.5 µM; ATP 10 µM
measure: residual activity (%)

INSERT INTO results (smi, measure_unit, result) VALUES
  ('O=C1NC(=O)C(c2cn(CCCO)c3ncccc23)=C1c1cnccn1', '%', 78.6),
  ('Cc1nc2cc3nc(-c4cccs4)cnc3cc2n1C', '%', 109),
  ('CC(C)[C@H](CO)Nc1nc(Nc2cc(N)cc(Cl)c2)c2ncn(C(C)C)c2n1', '%', 99.4),
  ('CCN(CC)CCCCN1c2ccccc2Oc2ccc(Cl)cc21', '%', 111),
  ('COc1ccc(OC)c2c(=S)c3ccccc3[nH]c12', '%', 82.7),
  ('Cn1cnc2cc3c(Nc4cccc(Br)c4)ncnc3cc21', '%', 93.2);

====

# tgt: FRK (human) (UniProt P42685)
# Sequence (P42685 whole entry, looked up): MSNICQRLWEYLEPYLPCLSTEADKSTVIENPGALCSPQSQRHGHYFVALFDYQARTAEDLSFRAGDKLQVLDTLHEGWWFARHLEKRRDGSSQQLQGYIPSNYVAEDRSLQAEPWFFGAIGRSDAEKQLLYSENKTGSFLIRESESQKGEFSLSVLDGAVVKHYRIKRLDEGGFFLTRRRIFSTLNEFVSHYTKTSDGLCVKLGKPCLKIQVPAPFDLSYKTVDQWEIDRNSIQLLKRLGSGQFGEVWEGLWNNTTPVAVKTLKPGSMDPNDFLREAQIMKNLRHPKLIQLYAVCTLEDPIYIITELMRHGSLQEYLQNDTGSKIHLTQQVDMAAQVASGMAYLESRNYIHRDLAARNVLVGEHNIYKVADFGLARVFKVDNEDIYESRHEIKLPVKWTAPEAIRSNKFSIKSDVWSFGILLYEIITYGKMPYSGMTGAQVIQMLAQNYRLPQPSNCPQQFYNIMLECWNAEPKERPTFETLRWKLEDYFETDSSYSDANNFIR
# test details: radiometric filter-binding kinase assay, Kinase HotSpot
# experimental setup: compound 0.5 µM; ATP 10 µM
Decision: residual activity >= 90% yields 1 (yes), all other cases yield 0 (no).

INSERT INTO results (molecule, label) VALUES
  ('Nc1nccc(-c2c(-c3ccc(F)cc3)ncn2C2CCNCC2)n1', '1 (yes)'),
  ('O=C(O)/C=C/c1cc(Br)c(Br)c(Br)c1Br', '1 (yes)'),
  ('O=C1Nc2ccccc2/C1=C1\Nc2ccccc2\C1=N/O', '0 (no)'),
  ('O=C1Nc2ccccc2/C1=C1/Nc2ccccc2/C1=N\OCCC(O)CO (stereo not given)', '0 (no)'),
  ('CN(C)C[C@H]1CCn2c(c(C3=C(c4cn(C)c5ccccc45)C(=O)NC3=O)c3ccccc32)C1', '1 (yes)'),
  ('CN([C@@H](Cc1ccc(OS(=O)(=O)c2cccc3cnccc23)cc1)C(=O)N1CCN(c2ccccc2)CC1)S(=O)(=O)c1cccc2cnccc12', '1 (yes)'),
  ('Cn1sc(=O)n(Cc2ccccc2)c1=O', '1 (yes)');

====

# tgt: UniProt P49840
# Sequence (P49840 whole entry, looked up): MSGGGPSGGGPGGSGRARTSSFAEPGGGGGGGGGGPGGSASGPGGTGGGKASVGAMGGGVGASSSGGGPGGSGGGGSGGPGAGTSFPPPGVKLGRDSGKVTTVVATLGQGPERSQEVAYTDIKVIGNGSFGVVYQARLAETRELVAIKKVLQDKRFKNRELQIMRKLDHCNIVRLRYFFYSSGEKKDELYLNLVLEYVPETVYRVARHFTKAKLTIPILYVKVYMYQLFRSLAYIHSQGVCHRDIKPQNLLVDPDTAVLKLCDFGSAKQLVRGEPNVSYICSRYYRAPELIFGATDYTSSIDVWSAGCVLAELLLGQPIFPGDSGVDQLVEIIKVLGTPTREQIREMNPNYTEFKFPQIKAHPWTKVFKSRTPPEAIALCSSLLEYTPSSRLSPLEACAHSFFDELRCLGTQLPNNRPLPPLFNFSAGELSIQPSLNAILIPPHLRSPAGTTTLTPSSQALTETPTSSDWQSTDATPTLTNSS
# test details: radiometric filter-binding kinase assay, Kinase HotSpot
# experimental setup: compound 0.5 µM; ATP 10 µM
Catalogue of residual activity values
measure: residual activity (%)

INSERT INTO measurements (molecule, result) VALUES
  ('CCN(CC)CCCCN1c2ccccc2Oc2ccc(Cl)cc21', 108),
  ('CN([C@@H](Cc1ccc(OS(=O)(=O)c2cccc3cnccc23)cc1)C(=O)N1CCN(c2ccccc2)CC1)S(=O)(=O)c1cccc2cnccc12', 99.8),
  ('Cn1cnc2cc3c(Nc4cccc(Br)c4)ncnc3cc21', 100),
  ('O=C(CCCc1ccc(-c2ccccc2F)cc1)Nc1ccc(O)cc1', 98.6),
  ('Nc1nnc2[nH]c3ccccc3nc1-2', 91.6),
  ('COc1cc2ncnc(N3CCN(C(=O)Nc4ccc(Oc5ccccc5)cc4)CC3)c2cc1OC', 95.8),
  ('O=C1NC(=O)C(c2cn(CCCO)c3ncccc23)=C1c1cnccn1', 8.56),
  ('CC(=O)O/N=C1\C(=C2\C(=O)Nc3cc(Br)ccc32)Nc2ccccc21', 6.49),
  ('O=C1Nc2ccccc2/C1=C1/Nc2ccccc2/C1=N\OCCC(O)CO (stereo unspecified)', 7.31),
  ('COc1ccc(OC)c2c(=S)c3ccccc3[nH]c12', 104),
  ('O=C1Nc2ccccc2/C1=C1\Nc2ccccc2\C1=N/O', 16.5),
  ('Nc1nccc(-c2c(-c3ccc(F)cc3)ncn2C2CCNCC2)n1', 97.5),
  ('CCn1cnc2c(Nc3cccc(Cl)c3)nc(N[C@@H]3CCCC[C@@H]3N)nc21', 103),
  ('Oc1ccc(Nc2nc(-c3ccc(Cl)cc3)cs2)cc1', 97.4),
  ('O=C(Nc1cccc(Nc2cc(Nc3cccc(C(F)(F)F)c3)ncn2)c1)C1CC1', 101),
  ('O=C(O)/C=C/c1cc(Br)c(Br)c(Br)c1Br', 91.5);

====

# tgt: CDK6 CCND1 (human) (UniProt Q00534+P24385)
# Sequence (P24385 whole entry, looked up): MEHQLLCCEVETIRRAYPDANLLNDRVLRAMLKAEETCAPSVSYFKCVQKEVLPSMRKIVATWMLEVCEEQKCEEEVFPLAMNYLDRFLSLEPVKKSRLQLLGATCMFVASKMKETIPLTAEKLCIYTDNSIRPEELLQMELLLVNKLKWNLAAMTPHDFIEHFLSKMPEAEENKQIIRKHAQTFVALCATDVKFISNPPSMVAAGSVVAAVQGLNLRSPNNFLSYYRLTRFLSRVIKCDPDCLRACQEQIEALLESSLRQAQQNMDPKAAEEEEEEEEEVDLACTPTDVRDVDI
# Sequence (Q00534 whole entry, looked up): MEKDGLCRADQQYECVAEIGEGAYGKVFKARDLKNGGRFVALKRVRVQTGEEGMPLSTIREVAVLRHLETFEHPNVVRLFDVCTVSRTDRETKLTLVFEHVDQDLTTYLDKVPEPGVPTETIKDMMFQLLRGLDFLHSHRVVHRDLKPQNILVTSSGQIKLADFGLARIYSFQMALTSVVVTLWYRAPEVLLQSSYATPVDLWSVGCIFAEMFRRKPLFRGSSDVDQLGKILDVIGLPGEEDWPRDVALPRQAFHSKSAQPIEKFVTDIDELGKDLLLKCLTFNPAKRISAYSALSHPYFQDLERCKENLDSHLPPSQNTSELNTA
# test details: radiometric filter-binding kinase assay, Kinase HotSpot
# experimental setup: compound 0.5 µM; ATP 10 µM
measure: residual activity (%)

INSERT INTO measurements (compound, result) VALUES
  ('Oc1ccc(Nc2nc(-c3ccc(Cl)cc3)cs2)cc1', 101),
  ('COc1cc2ncc(-c3ccccc3)nc2cc1OC', 94.1),
  ('O=C1Nc2ccccc2/C1=C1\Nc2ccccc2\C1=N/O', 52.8),
  ('CCN(CC)CCCCN1c2ccccc2Oc2ccc(Cl)cc21', 98),
  ('CC(=O)O/N=C1\C(=C2\C(=O)Nc3cc(Br)ccc32)Nc2ccccc21', 53.2),
  ('O=C(CCCc1ccc(-c2ccccc2F)cc1)Nc1ccc(O)cc1', 98.2),
  ('O=C1NC(=O)C(c2cn(CCCO)c3ncccc23)=C1c1cnccn1', 83.4),
  ('CCn1cnc2c(Nc3cccc(Cl)c3)nc(N[C@@H]3CCCC[C@@H]3N)nc21', 60.9),
  ('CN([C@@H](Cc1ccc(OS(=O)(=O)c2cccc3cnccc23)cc1)C(=O)N1CCN(c2ccccc2)CC1)S(=O)(=O)c1cccc2cnccc12', 91.6),
  ('Cc1nc2cc3nc(-c4cccs4)cnc3cc2n1C', 99.3),
  ('Nc1nnc2[nH]c3ccccc3nc1-2', 105),
  ('O=C(Nc1cccc(Nc2cc(Nc3cccc(C(F)(F)F)c3)ncn2)c1)C1CC1', 99.1),
  ('CN(C)C[C@H]1CCn2c(c(C3=C(c4cn(C)c5ccccc45)C(=O)NC3=O)c3ccccc32)C1', 70.5),
  ('COc1ccc(CNC(=O)Nc2ncc([N+](=O)[O-])s2)cc1', 98.6),
  ('c1cc(-c2cnn3cc(-c4ccc(OCCN5CCCCC5)cc4)cnc23)ccn1', 21.2),
  ('COc1ccc(OC)c2c(=S)c3ccccc3[nH]c12', 102),
  ('COc1cc2ncnc(N3CCN(C(=O)Nc4ccc(Oc5ccccc5)cc4)CC3)c2cc1OC', 95.1),
  ('Cc1ccc(NC(=O)c2ccc(CN3CCN(C)CC3)cc2)cc1Nc1nccc(-c2cccnc2)n1', 99),
  ('O=C1Cc2c([nH]c3ccc(Br)cc23)-c2ccccc2N1', 83.4),
  ('Cn1sc(=O)n(Cc2ccccc2)c1=O', 106),
  ('O=C1Nc2ccccc2/C1=C1/Nc2ccccc2/C1=N\OCCC(O)CO (configuration not stated)', 27.7),
  ('Nc1nccc(-c2c(-c3ccc(F)cc3)ncn2C2CCNCC2)n1', 101);

====

# tgt: INSR (human) (UniProt P06213)
# Sequence (P06213 whole entry, looked up): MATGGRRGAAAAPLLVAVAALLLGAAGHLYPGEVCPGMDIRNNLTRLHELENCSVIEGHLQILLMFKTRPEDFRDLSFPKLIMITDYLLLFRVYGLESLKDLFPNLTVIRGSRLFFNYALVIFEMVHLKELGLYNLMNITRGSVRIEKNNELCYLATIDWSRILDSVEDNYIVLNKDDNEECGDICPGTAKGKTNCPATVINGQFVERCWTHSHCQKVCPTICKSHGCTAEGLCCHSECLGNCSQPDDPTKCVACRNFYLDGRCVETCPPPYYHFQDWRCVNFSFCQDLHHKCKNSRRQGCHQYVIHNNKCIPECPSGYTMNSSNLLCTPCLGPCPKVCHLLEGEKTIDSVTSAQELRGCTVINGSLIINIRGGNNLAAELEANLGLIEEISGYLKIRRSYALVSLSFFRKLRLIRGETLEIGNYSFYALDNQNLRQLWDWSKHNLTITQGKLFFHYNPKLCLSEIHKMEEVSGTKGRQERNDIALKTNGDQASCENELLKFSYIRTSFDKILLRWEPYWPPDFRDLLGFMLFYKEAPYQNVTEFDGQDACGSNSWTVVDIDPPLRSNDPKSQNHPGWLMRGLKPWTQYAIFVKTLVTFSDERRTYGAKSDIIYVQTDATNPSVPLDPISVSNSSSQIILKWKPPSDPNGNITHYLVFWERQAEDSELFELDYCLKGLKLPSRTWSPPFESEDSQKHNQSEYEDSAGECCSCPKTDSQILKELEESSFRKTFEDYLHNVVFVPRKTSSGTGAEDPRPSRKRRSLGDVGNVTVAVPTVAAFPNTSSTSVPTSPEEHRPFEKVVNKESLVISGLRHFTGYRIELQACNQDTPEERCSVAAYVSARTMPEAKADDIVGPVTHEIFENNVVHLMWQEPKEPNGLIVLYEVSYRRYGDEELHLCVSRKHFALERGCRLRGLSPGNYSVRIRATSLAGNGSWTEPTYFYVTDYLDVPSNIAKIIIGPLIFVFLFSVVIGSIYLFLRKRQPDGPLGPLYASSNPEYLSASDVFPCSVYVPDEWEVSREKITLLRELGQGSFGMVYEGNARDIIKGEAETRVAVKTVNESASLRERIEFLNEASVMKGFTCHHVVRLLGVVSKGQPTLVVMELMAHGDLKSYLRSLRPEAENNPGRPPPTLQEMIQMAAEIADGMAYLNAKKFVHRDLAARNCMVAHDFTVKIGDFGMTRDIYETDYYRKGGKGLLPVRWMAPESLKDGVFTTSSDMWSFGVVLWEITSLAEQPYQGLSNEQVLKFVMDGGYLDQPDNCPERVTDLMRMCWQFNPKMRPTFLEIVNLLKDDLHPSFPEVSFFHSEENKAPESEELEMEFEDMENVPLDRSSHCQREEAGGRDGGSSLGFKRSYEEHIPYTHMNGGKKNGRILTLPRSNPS
# test details: radiometric filter-binding kinase assay, Kinase HotSpot
# experimental setup: compound 0.5 µM; ATP 10 µM
measure: residual activity (%)

INSERT INTO assay_data (smi, measure, result) VALUES
  ('O=C1Cc2c([nH]c3ccc(Br)cc23)-c2ccccc2N1', 'residual activity', 101),
  ('Cn1sc(=O)n(Cc2ccccc2)c1=O', 'residual activity', 93.7),
  ('Nc1nnc2[nH]c3ccccc3nc1-2', 'residual activity', 95.3);

====

Listed here: items and their measured residual activity.
# tgt: UniProtKB P32298
# Sequence (P32298 whole entry, looked up): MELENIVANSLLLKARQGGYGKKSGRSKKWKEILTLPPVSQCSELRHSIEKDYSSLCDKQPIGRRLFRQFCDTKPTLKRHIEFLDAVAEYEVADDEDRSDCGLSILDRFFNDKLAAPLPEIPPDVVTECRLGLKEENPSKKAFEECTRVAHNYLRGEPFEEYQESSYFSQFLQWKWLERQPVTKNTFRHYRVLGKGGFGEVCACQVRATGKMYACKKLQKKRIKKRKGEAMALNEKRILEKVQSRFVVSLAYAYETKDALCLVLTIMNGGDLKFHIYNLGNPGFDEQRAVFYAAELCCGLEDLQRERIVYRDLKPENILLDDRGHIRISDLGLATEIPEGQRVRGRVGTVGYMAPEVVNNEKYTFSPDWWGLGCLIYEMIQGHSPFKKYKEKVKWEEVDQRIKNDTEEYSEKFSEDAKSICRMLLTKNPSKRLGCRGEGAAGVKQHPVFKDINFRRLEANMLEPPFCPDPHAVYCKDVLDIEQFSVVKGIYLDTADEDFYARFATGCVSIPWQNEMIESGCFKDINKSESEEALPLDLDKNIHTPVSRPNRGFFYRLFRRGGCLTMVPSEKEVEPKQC
# test details: radiometric filter-binding kinase assay, Kinase HotSpot
# experimental setup: compound 0.5 µM; ATP 10 µM
measure: residual activity (%)

INSERT INTO measurements (compound, result) VALUES
  ('O=C(CCCc1ccc(-c2ccccc2F)cc1)Nc1ccc(O)cc1', 96.8),
  ('CN([C@@H](Cc1ccc(OS(=O)(=O)c2cccc3cnccc23)cc1)C(=O)N1CCN(c2ccccc2)CC1)S(=O)(=O)c1cccc2cnccc12', 96.5),
  ('O=C(O)/C=C/c1cc(Br)c(Br)c(Br)c1Br', 101),
  ('CCn1cnc2c(Nc3cccc(Cl)c3)nc(N[C@@H]3CCCC[C@@H]3N)nc21', 96.2),
  ('CC(C)[C@H](CO)Nc1nc(Nc2cc(N)cc(Cl)c2)c2ncn(C(C)C)c2n1', 103),
  ('Cn1cnc2cc3c(Nc4cccc(Br)c4)ncnc3cc21', 99.5),
  ('O=C1Cc2c([nH]c3ccc(Br)cc23)-c2ccccc2N1', 97.9),
  ('COc1cc2ncc(-c3ccccc3)nc2cc1OC', 97.8),
  ('Oc1ccc(Nc2nc(-c3ccc(Cl)cc3)cs2)cc1', 90.5),
  ('CN(C)C[C@H]1CCn2c(c(C3=C(c4cn(C)c5ccccc45)C(=O)NC3=O)c3ccccc32)C1', 76.4),
  ('O=C1NC(=O)C(c2cn(CCCO)c3ncccc23)=C1c1cnccn1', 90.1),
  ('O=C1NC(=O)C(c2c[nH]c3ccccc23)=C1c1c[nH]c2ccccc12', 97.1),
  ('COc1cc2ncnc(N3CCN(C(=O)Nc4ccc(Oc5ccccc5)cc4)CC3)c2cc1OC', 94.7),
  ('COc1ccc(OC)c2c(=S)c3ccccc3[nH]c12', 103),
  ('Nc1nnc2[nH]c3ccccc3nc1-2', 98.9),
  ('Cn1nc2c3c(cccc31)C(=O)c1ccccc1-2', 105),
  ('O=C1Nc2ccccc2/C1=C1/Nc2ccccc2/C1=N\OCCC(O)CO (configuration not stated)', 74.7),
  ('Nc1nccc(-c2c(-c3ccc(F)cc3)ncn2C2CCNCC2)n1', 96.9),
  ('COc1ccc(CNC(=O)Nc2ncc([N+](=O)[O-])s2)cc1', 92.1),
  ('O=C1Nc2ccccc2/C1=C1\Nc2ccccc2\C1=N/O', 98.3),
  ('CCN(CC)CCCCN1c2ccccc2Oc2ccc(Cl)cc21', 102),
  ('CC(=O)O/N=C1\C(=C2\C(=O)Nc3cc(Br)ccc32)Nc2ccccc21', 97.6);
